- Procedure Summary: NCI Yeast Anticancer Drug Screen. Data for the mlh1 strain (AID 171)
- Condition: S. cerevisiae mlh1 strain growth inhibition; at 100.0 µM; stronger effect = higher value
The panel holds about 79,000 compounds, 15% with a hit somewhere; the sample as a whole holds those more often.
Tag: Criterion met if measured growth inhibition is not below 10%, Criterion not met if it is.

Use these answered entries as a reference point.
1) COc1cc(CSc2ccc(O)cc2)cc(O)c1O : Criterion not met
2) Cc1cc2c(cc1C)[n+]([O-])c(-c1nc3ccccc3s1)c(N)[n+]2[O-] : Criterion met
3) COC(=O)Nc1cn2ccc(C(Cl)=C(Cl)Cl)cc2n1 : Criterion met
4) CCCCNC1CCC2(SCCS2)c2[nH]c3ccccc3c21 (stereo not given) : Criterion not met

Answer whether growth inhibition of CCC(C)(C)c1ccc(Oc2cccc(C(=O)O)c2)cc1 is greater than or equal to 10%.
Criterion met
